Where do these numbers come from? They come from paper PMC3525729.

Molecular target: rM5 (Rattus norvegicus)
Sequence (P08911 1-531): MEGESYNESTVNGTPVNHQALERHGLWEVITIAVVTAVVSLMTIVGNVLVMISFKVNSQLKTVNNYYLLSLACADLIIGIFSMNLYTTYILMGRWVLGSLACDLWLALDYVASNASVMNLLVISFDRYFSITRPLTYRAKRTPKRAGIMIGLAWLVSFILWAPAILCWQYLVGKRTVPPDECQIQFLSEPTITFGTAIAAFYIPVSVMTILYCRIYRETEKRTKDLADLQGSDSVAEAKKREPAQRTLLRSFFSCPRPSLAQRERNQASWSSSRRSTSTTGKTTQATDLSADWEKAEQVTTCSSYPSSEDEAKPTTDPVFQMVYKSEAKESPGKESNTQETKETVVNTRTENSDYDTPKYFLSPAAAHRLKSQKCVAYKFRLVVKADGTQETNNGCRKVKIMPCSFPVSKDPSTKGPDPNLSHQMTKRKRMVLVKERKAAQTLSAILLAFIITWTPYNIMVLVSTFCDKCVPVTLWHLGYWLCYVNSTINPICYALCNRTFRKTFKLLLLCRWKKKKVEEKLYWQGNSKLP
Assay: CRC screened in agonist mode, rM5
READOUT_KIND: EC50

Would you mind telling me what EC50 value was observed for Cc1ccccc1CN1CCC(N2CCC(n3c(=O)[nH]c4ccccc43)CC2)CC1 ?
> 30 µM

---

Molecular target: M5 (Homo sapiens)
Sequence (P08912 1-532): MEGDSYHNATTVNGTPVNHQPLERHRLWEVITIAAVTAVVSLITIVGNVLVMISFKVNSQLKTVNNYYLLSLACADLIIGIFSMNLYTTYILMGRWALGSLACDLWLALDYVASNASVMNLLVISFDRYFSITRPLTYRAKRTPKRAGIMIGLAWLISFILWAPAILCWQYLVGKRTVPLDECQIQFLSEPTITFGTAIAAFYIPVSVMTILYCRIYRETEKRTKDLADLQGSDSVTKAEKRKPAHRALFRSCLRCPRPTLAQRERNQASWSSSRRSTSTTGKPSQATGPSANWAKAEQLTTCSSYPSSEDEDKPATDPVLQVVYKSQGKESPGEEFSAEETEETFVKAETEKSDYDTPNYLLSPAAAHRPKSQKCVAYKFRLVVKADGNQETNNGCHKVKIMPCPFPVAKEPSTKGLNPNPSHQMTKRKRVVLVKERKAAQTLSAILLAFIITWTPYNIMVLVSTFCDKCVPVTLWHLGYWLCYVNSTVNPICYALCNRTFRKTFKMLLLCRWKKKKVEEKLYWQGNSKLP
Test: M5 antagonist screen
pIC50: −log10 of the molar value.
READOUT_KIND: pIC50

Could you tell me which pIC50 is on file for CCOC(=O)N1CCC(N2CCC[C@@H](NC(=O)c3ccc(C(F)(F)F)nc3)C2)CC1 [compound 16] ?
< 5.00

---

Target: UniProt P08173
Sequence (P08173 whole entry): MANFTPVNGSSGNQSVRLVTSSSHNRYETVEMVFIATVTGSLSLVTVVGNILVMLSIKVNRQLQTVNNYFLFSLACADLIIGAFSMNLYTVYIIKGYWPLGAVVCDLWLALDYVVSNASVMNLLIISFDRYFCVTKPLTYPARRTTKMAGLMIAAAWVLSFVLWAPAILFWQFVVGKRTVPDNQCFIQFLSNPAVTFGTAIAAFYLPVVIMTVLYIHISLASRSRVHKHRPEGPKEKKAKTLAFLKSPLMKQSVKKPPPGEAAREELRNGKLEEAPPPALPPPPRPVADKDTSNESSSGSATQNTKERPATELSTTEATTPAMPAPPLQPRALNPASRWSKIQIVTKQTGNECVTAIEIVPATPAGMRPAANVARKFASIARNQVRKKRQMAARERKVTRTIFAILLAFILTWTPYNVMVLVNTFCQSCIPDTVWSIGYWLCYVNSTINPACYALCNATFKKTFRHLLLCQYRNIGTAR
Test: M4 antagonist screen
READOUT_KIND: IC50

Report IC50 for CCOC(=O)N1CCC(N2CCC[C@@H](NC(=O)c3ccc(C(F)(F)F)nc3)C2)CC1 please.
> 10 µM
